Cited source for all entries: ChEMBL document CHEMBL1124387

tested on: Canis familiaris; assay: Hemodynamic activity in anesthetized dog as percent change from baseline (2271 mmHg/s) in left ventricular myocardial activity at 0.1 mg/kg administered intravenously; format: functional, Canis lupus familiaris, Heart left ventricle; conditions: route intravenous
Assign class by Change: not lower than 40% means y; lower than 40% means n.

[Q] Form field: Change at least 40%? Entry: CC1CC(=O)NN=C1/C=C/c1ccc(-n2ccnc2)cc1.Cl (configuration not stated)
[A] y

[Q] Form field: Change at least 40%? Entry: CC1CC(O)=NN=C1c1ccc(-n2ccnc2)cc1 (configuration not stated) [CI-930]
[A] y

[Q] Form field: Change at least 40%? Entry: CSc1ccc(C(=O)c2[nH]c(=O)[nH]c2C)cc1 [ENOXIMONE]
[A] n
